TARGET_OR_SYSTEM: Replicative DNA helicase DnaB (Mycobacterium tuberculosis, UniProt P9WMR3)
Sequence (P9WMR3 1-399, added parts left off): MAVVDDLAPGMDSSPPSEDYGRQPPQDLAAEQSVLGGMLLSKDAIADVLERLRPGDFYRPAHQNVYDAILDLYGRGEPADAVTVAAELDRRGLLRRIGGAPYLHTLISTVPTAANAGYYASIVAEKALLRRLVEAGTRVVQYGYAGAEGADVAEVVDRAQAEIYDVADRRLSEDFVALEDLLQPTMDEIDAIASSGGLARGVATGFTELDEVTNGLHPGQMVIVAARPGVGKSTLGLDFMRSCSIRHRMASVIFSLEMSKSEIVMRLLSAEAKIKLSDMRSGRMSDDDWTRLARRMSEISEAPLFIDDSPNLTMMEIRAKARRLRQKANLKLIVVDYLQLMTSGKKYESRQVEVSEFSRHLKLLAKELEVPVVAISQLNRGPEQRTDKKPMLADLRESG
EXPERIMENT_DESCRIPTION: DnaB intein splicing inhibitors, dose response, biochemical, cell-free fluorescence (AID 449749)
Format: functional
Activity calls are given as the source filed them. No stated cut-off is given here; in the data, actives have a measured AC50 and inactives only a lower limit.
Permitted responses: yes = active, no = inactive

COMPOUND	TARGET_OR_SYSTEM	CLASSIFICATION
O=C(CSCc1ccc([N+](=O)[O-])cc1)N/N=C/c1cccnc1	Replicative DNA helicase DnaB (Mycobacterium tuberculosis, UniProt P9WMR3)	no

In: Each compound tested received a call. Report the one for Cc1ccc(/N=C2\C(Cl)=C(O)OC2OC(=O)c2ccco2)cc1C (stereo not drawn) .
Out: yes

In: Lab log entry: `c1ccc(CCNCc2cccs2)cc1` — outcome as called in the assay?
Out: no
